biological target: T1, recombinant Plasmodium falciparum circumsporozoite protein (CSP) (Plasmodium falciparum, UniProt Q7K740 21-375); assay: SPR, recombinant CSP
T1 construct: also called recombinant CSP
T1 sequence (Q7K740 21-375 limits assumed): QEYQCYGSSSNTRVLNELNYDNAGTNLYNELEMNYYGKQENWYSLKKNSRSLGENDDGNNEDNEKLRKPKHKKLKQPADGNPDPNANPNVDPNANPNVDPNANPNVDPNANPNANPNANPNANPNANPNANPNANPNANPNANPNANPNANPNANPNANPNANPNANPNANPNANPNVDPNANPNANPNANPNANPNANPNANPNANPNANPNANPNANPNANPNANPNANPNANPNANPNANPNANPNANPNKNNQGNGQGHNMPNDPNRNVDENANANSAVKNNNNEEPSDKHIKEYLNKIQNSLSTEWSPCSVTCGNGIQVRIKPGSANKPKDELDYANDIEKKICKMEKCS
Kindly state pKd for each of the entries shown.
Numbers only, as −log10 of the molar value.

AB-001545 (antibody, V domains shown) VH: QVQLVESGGGVVQPGRSLRLSCAASGFTFSSYGMHWVRQAPGKGLEWVAVIWYDGSNKYYADSVKGRFTISRDNSKNTLYLQMNSLRAEDTAVYYCARDLDYSNHNWFDPWGQGTLVTVSS VL: EIVLTQSPATLSLSPGERATLSCRASQSVSSYLAWYQQKPGQAPRLLIYDASNRATGIPARFSGSGSGTDFTLTISSLEPEDFAVYYCQQRSNWFTFGQGTRLEIK
8.30
AB-000373 (antibody, V domains shown) VH: QVLLVESGGGVVQPGGSLRLSCTASGFTFKNYGMHWVRQAPGKGLEWVAVIWFDGSNEFYADSVEGRFTISRDNSKNTLYLQTNSLRAEDTAVYYCARSYTSSWLGFDFWGQGTLVTVSS VL: DAVMTQTPLSLSVTPGQPASISCKSGQSLLHSDGKTYLYWYLQKPGQSPQLLIYEVSSRFSGVPDRFSGSGSGTDFTLKISRVEAEDVGVYYCMRGIHPRTFGQGTKVEIK
10.23

Quick one: pKd of AB001578 (antibody, V domains shown) VH: QVQLVESGGGVVQPGRSLRLSCAASGFSFSNYGMHWVRQAPGKGLEWVAIIWYDGSNKYYADSVKGRFTISRDNSKNTLYLQMNSLRAEDTAVYYCARDGTIWDDSRGYILDYWGQGTLVTVSS VL: EIVLTQSPATLSLSPGERATLSCRASQGVSSYLAWYQQKPGQAPRLLIYDASNRATGIPARFSGSGSGTDFTLTISSLEPEDFAVYYCQQRSNWPPTFGPGTKVDIK ?
8.58
